Measured melting point of individual entries

Quick check: melting point of `c1csc(-c2nc3ccc(N4C[C@H]5CNC[C@H]5C4)nn3c2-c2ccncc2)c1` ?
179 to 183 °C

Item under review: `Cc1ccc(-c2nc3ccc(N4CCN(CCO)CC4)nn3c2-c2ccncc2)o1` . Reported melting point?
190 to 192 °C

What value of melting point has been recorded for this entry: `c1cc(-c2c(-c3ccsc3)nc3ccc(N4CCC(N5CCCC5)CC4)nn23)ccn1`
168 to 170 °C

Look up melting point: `CN1C[C@@H]2CN(c3ccc4nc(-c5ccc(Cl)s5)c(-c5ccncc5)n4n3)C[C@@H]2C1`
217 to 220 °C

Moving on to the next molecule.
Give its melting point value. Item: `c1cc(-c2c(-c3ccsc3)nc3ccc(N4CCC5(CCCNC5)CC4)nn23)ccn1`
133 to 168 °C
